Every entry's value here was drawn from paper PMC6748986.

Consider the following molecules and their measured Maximal Activation (%) readings.
# subject of test: CepR (Burkholderia cenocepacia)
# Sequence (B4EMD0 1-239): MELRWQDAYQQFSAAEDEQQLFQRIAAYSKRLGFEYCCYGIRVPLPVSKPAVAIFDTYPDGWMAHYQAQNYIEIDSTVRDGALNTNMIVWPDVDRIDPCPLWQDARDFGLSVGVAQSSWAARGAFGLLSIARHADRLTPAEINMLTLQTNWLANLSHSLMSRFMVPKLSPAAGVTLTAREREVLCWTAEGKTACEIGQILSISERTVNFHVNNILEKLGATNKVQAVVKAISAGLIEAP
# experiment description: CepR agonism in E. coli β-galactosidase reporter (Ec-reporter) JLD271 [pJN105-cepR + pSC11-cepI]
# Type: cell-based, B. cenocepacia
# details: Ec-reporter; activity for 100 μM C8-AHL set to 100%; error ±10%
# value in %; strip the unit string

Answered examples (4):
Fill in: Maximal Activation (%) of `CCCCCCS(=O)(=O)N[C@H]1CCOC1=O` is ___
−5.0

Which Maximal Activation (%) is listed for CCCCCCCCCCCCCCCC(=O)N[C@H]1CCOC1=O [Compound C16-AHL, hexadecanoyl L-homoserine lactone, reference compound] ?
35

Request the reported Maximal Activation (%) associated with `O=C(CCc1ccc(F)cc1)N[C@H]1CCOC1=O`
92

For the molecule shown here, CCCCCC(=O)CC(=O)N[C@H]1CCOC1=O [3’O-C8-AHL, reference compound] , give the reported Maximal Activation (%).
86

// next entry
May I ask what Maximal Activation (%) has been recorded for CCCCCCCCCC(=O)N[C@H]1CCOC1=O [Compound C10-AHL, decanoyl L-homoserine lactone, reference compound] ?
87

###

# subject of test: CepR (Burkholderia cenocepacia, UniProt B4EMD0)
# experiment description: CepR antagonism in E. coli β-galactosidase reporter (Ec-reporter), competition against C8-AHL
# Assay type: cell-based, B. cenocepacia
# details: Table S3, Ec-reporter; screening conc. 100 μM; against 10 nM C8-AHL
# Experimental: We began our study by screening the AHL library for CepR modulators using an E. coli-based two plasmid reporter system (Ec-reporter)[38]–[40]. […] Cells were grown for 4 h, OD600 was read, 50 μL aliquots from each well were permeabilized in 200 μL Z Buffer, and then 150 μL of this mixture used to measure the cleavage of 25 μL of 4 mg/mL CPRG in phosphate buffered saline (PBS) at 37 °C until positive control wells developed a deep red color (~30 min). […]
Recorded Inh% (100-Act%) values for a group of molecules are listed next.
Kindly provide the numeric value in % only, without the unit symbol.

In the examples that follow, each entry is paired with its recorded Inh% (100-Act%).
What value of Inh% (100-Act%) on CepR (Burkholderia cenocepacia, UniProt B4EMD0) does `Cc1cccc(CCC(=O)N[C@H]2CCOC2=O)c1` have?
-10

Lab request: please report Inh% (100-Act%) under test system CepR (Burkholderia cenocepacia, UniProt B4EMD0) for `CCCCCCCCCC(=O)CC(=O)NCc1ccc(OC)cc1`
21

Tell me reported Inh% (100-Act%) for `O=C(Cc1ccc(Br)cc1)N[C@@H]1CCOC1=O` , tested with CepR (Burkholderia cenocepacia, UniProt B4EMD0).
0.0

Inh% (100-Act%) of `O=C(CCc1ccc(F)cc1)N[C@H]1CCOC1=O` on CepR (Burkholderia cenocepacia, UniProt B4EMD0)?
-10

---
What measured Inh% (100-Act%) is associated with `CSc1ccc(CCC(=O)N[C@H]2CCOC2=O)cc1` on CepR (Burkholderia cenocepacia, UniProt B4EMD0)?
-20

###

Maximal Activation (%) by entry:
# subject of test: CepR (Burkholderia multivorans, UniProt Q93PF7)
# experiment description: CepR agonism in B. multivorans cepI::lacZ reporter (Bm-reporter)
# Format: cell-based
# details: Bm-reporter; activity for 100 μM C8-AHL set to 100%; error ±10%
# value in %; strip the unit string

Given the entry O=C(CCc1cccc(C(F)(F)F)c1)N[C@H]1CCOC1=O [Compound E36] , what Maximal Activation (%) was observed with CepR (Burkholderia multivorans, UniProt Q93PF7)?
100

Report Maximal Activation (%) for O=C(CCc1cccc(Br)c1)N[C@H]1CCOC1=O [Compound E31] tested on CepR (Burkholderia multivorans, UniProt Q93PF7).
78

Provide the documented Maximal Activation (%) with CepR (Burkholderia multivorans, UniProt Q93PF7) as the system for Cc1ccc(CCC(=O)N[C@H]2CCOC2=O)cc1 [Compound E26]
96

Give CepR (Burkholderia multivorans, UniProt Q93PF7) Maximal Activation (%) for O=C(CCc1cccc(I)c1)N[C@H]1CCOC1=O [Compound E33]
94

Find Maximal Activation (%) (CepR (Burkholderia multivorans, UniProt Q93PF7)) for the entry CCCCCC(=O)CC(=O)N[C@H]1CCOC1=O [3’O-C8-AHL, reference compound]
72

###

# subject of test: CepR (Burkholderia multivorans)
# Sequence (Q93PF7 1-239): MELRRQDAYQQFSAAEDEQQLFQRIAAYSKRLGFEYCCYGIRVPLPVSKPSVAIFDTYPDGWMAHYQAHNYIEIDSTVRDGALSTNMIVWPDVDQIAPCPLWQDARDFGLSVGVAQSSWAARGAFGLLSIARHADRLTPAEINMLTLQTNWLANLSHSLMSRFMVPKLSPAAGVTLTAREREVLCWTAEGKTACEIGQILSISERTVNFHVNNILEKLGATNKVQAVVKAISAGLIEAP
# experiment description: CepR antagonism in B. multivorans cepI::lacZ reporter (Bm-reporter), competition against C8-AHL
# Format: cell-based
# details: Bm-reporter; against 5 nM C8-AHL
In plain terms, low Maximal Inhibition (%), meaning strictly below 50%, gives YES, and everything else gives NO.

Decide: Maximal Inhibition (%) of CCCCCC(=O)N[C@H]1CCOC1=O [Compound C6-AHL, hexanoyl L-homoserine lactone, reference compound] strictly below 50%?
YES

Others:
Lab log: compare recorded Maximal Inhibition (%) with 50%; is it strictly lower for O=C(Cc1cccc2ccccc12)N[C@H]1CCOC1=O [Compound E13] ?
YES

Quick check: does O=C(COc1cccc([N+](=O)[O-])c1)N[C@H]1CCOC1=O [Compound E25] have Maximal Inhibition (%) under 50%?
NO

A record lists O=C(N[C@H]1CCOC1=O)C1CCCC1 [Compound S4] . Is its Maximal Inhibition (%) below 50%?
NO

Lab log: compare recorded Maximal Inhibition (%) with 50%; is it strictly lower for O=C(Cc1ccc(F)c(C(F)(F)F)c1)N[C@H]1CCOC1=O [Compound E10] ?
YES

In plain terms, does O=C(Cc1ccc([N+](=O)[O-])cc1)N[C@H]1CCOC1=O [Compound C13] come in under 50% for Maximal Inhibition (%)?
NO

Would you kindly verify if Maximal Inhibition (%) of CCCC(=O)CC(=O)N[C@H]1CCOC1=O [3’O-C6-AHL, reference compound] is strictly less than 50%?
NO

Is the reported Maximal Inhibition (%) for N#Cc1cccc(CC(=O)N[C@H]2CCOC2=O)c1 [Compound E5] strictly below 50%?
YES

Consider the compound O=C(Cc1cccc(Br)c1)N[C@H]1CCOC1=O [Compound C8] . Is its Maximal Inhibition (%) strictly less than 50%?
NO

Dear colleague, could you confirm whether Maximal Inhibition (%) of CCCC(=O)N[C@H]1CCOC1=O [Compound C4-AHL, butanoyl L-homoserine lactone, reference compound] falls below 50%? Thanks.
NO

In plain terms, does O=C(Cc1cccc([N+](=O)[O-])c1)NC1CCOC1=O (stereo not drawn) [Compound C14] come in under 50% for Maximal Inhibition (%)?
NO

###

inhibition at 100 µM: recorded values
# subject of test: CepR (Burkholderia cenocepacia)
# experiment description: CepR antagonism in E. coli β-galactosidase reporter (Ec-reporter), competition against C8-AHL
# Assay type: cell-based, B. cenocepacia
# details: Table S3, Ec-reporter; screening conc. 100 μM; against 10 nM C8-AHL; read-out: Inh% (100-Act%)

Hello, I am looking for reported inhibition at 100 µM with CepR (Burkholderia cenocepacia) for `O=C(CCc1ccc([N+](=O)[O-])cc1)N[C@H]1CCOC1=O` . Could you help?
-30%

Record lookup: for CepR (Burkholderia cenocepacia), what inhibition at 100 µM belongs to `O=C(CCc1ccc(C(F)(F)F)cc1)N[C@H]1CCOC1=O` ?
-50%

Recall the recorded inhibition at 100 µM for `O=C(CCc1ccc(I)cc1)N[C@H]1CCOC1=O` with CepR (Burkholderia cenocepacia) and state it.
-20%

Let us move to another entry and its inhibition at 100 µM.
Record lookup: for CepR (Burkholderia cenocepacia), what inhibition at 100 µM belongs to CCCCCCCC(=O)N[C@H]1CCOC1=O [Compound C8-AHL, N-octanoyl L-homoserine lactone, reference compound] ?
-30%
